- System: 786-0 renal
- test description: NCI tumour cell line growth inhibition, 48 h
For each entry below, report its GI50 value.

Request: GI50, test system 786-0 renal, entry `CCCCNCCCCCNc1cc(OC)cc2cccnc12`
14.6 µM

Short answer please: GI50, 786-0 renal, entry `CCN(CC)CCCNc1cc(OC)c(OC)c2cccnc12`
12 µM

// map `NC(=O)c1ncn2c(=O)n(CCCl)nnc12` to recorded GI50 (system: 786-0 renal)
46.4 µM

Notebook entry, 786-0 renal assay: GI50 of C=C1C(O)C2CC(C)(C)C(=O)C2=C(CC(C)C)C12CC2 (stereo not given) = ?
> 100 µM

Look up GI50 with 786-0 renal for this molecule: `COc1cc(/C=C/c2ccnc3ccccc23)cc(OC)c1OC`
4.42 µM

Hi! What's the reported GI50 for O=c1[nH]c(=O)n(C2OC(CO)C(O)C2O)cc1F (stereo not given) on 786-0 renal?
0.0462 µM

So what GI50 did `Nc1nc(N)c(-c2ccc(Cl)c(Cl)c2)c(CP(Cl)(Cl)(Cl)Br)n1` get with 786-0 renal?
14.6 µM

So what GI50 did `Cc1nn(-c2ccccc2)c2nc(C)n(-c3ccc(Br)cc3)c(=O)c12` get with 786-0 renal?
0.542 µM

Lab note: need GI50 for `CCS(=O)(=O)N1CCN(c2ccc(Nc3ncc(C(N)=O)c(NC4CC4)n3)cc2)CC1` on 786-0 renal, anyone have it?
5.31 µM

Find GI50 (786-0 renal) for the entry `CCCCC[C@H]1C/C=C2/C(=O)C(Cl)=C[C@@H]2C/C=C\CCCC(=O)O1`
0.47 µM

Return GI50 measured with 786-0 renal given this molecule: `C[C@@H](Oc1cc(-c2cnn(C3CCNCC3)c2)cnc1N)c1c(Cl)cc(F)cc1Cl`
2.13 µM

Lookup: GI50 / 786-0 renal / OCC1OC(n2cnc3c(NCc4ccccc4O)ncnc32)C(O)C1O (stereo not given)
0.571 µM

Provide the documented GI50 with 786-0 renal as the system for `C=C1C(=O)O[C@H]2[C@H]1CC/C(COC(=O)/C=C\C(=O)NCc1ccc(Cn3c(=O)sn(-c4ccc(Cl)cc4)c3=O)cc1)=C\CC[C@@]1(C)O[C@@H]21`
0.658 µM

Recorded GI50 for `CN(C)C/C=C/C(=O)Nc1cc2c(Nc3cccc(Cl)c3F)ncnc2cc1OCCOC(F)F` with 786-0 renal, please?
0.695 µM

Give recorded GI50 with 786-0 renal for the following molecule: CC(C)(C)OC(=O)N1Cc2cc3ccccc3nc2C1CO (stereo not given)
> 100 µM

* * *

- System: SN12C renal
- test description: NCI tumour cell line growth inhibition, 48 h; in the data active = GI50 below about 0.43 µM; inactive = the rest
# valid calls are y = active, n = inactive; nothing else

Identify the outcome logged in this assay for the compound shown: `CC1(C)CC[C@]2(CO)CC[C@]3(C)C(=CC[C@@H]4[C@@]5(C)CCNCC(C)(C)[C@@H]5CC[C@]43C)[C@@H]2C1`
n

So what was the verdict on `N/C(=N/S(=O)(=O)c1cc(C(=O)Nc2ccc(F)cc2)c(Cl)cc1SCc1ccccc1)Nc1ccccc1O` in this test?
n

Fill in: this test's call for `O=C(c1ccc(Nc2nccc(NCCCCNc3ccnc4cc(Cl)ccc34)n2)cc1)N1CCCCC1` is ___
n

Name the outcome recorded for `CN(C)C/C=C/C(=O)Nc1cc2c(Nc3cccc(Cl)c3F)ncnc2cc1OCCOC(F)F` in the assay.
y

What did the test return for `Nc1cc(N)c2nc(-c3ccccc3)c(NCc3ccc(Cl)c(Cl)c3)nc2c1` ?
n

I'd appreciate the recorded outcome for `CCOC(=O)c1cc(C(=O)c2cc(OC)c(OC)c(OC)c2)n2ccc(-c3cc[n+](CC(=O)c4cc(OC)c(OC)c(OC)c4)cc3)cc12` from this test.
n

# fetch the recorded call for `C[C@@H](Oc1cc(-c2cnn(C3CCNCC3)c2)cnc1N)c1c(Cl)cc(F)cc1Cl` here
n

# fetch the recorded call for `CCOC(=O)c1cc2c(n1Cc1cc(OC)cc(OC)c1)-c1oncc1CC2` here
n

* * *

Exercise: for every item that follows, state its recorded log10 TGI.
- System: OVCAR-3 ovarian
- test description: NCI tumour cell line growth inhibition, 48 h
# values: log10(TGI), units µM

So what does the record say about log10 TGI for `CCN(CC)CCCNc1cc(OC)c(OC)c2cccnc12` ?
0.71

Fill blank: measured log10 TGI of the compound `Cc1ccc(NC2=CC(=O)C(=O)c3ccccc32)cc1` is ____.
0.69

Look up log10 TGI: CCOC(=O)C1=NNC(C(=O)c2ccccc2)C1c1ccccc1 (stereo unspecified)
1.04

# lookup: log10 TGI of `Cn1cc(-c2nc(-c3cn(C)c4ncccc34)cs2)c2ccccc21`
0.23

What value of log10 TGI has been reported for the following compound? `O=C(COc1cccc(/C=C2\Oc3ccc4ccccc4c3C2=O)c1)c1ccc([N+](=O)[O-])cc1`
1.45

Param item = `CCC(=C(c1ccc(OCCN2CCCC2)cc1)c1ccc(OCCN2CCCC2)cc1)c1ccc(Cl)cc1` ; retrieve measured log10 TGI.
0.11

Value lookup for log10 TGI; key = `CCOC(=O)CCc1ccc(NC(=O)/C=C/c2ccc([N+](=O)[O-])o2)cc1`
0.46

log10 TGI lookup needed for CC1OC(CC2C=CCc3c(O)c4c(c(O)c32)C(=O)c2ccccc2C4=O)CC(NC(=O)C(F)(F)F)C1O (stereo unspecified) , thanks.
1.28

* * *

- Tested on: EKVX NSCLC
- test description: NCI tumour cell line growth inhibition, 48 h
Please go through the items and note down their GI50.

Request - read-out GI50 | tested on EKVX NSCLC | compound `O=C(CCl)Nc1ccc(Cc2ccc(NC(=O)CCl)cc2)cc1`
2.23 µM

// lookup GI50 | system=EKVX NSCLC | key= `CC(=O)c1ccc(Oc2c3ccccc3nc3occc23)cc1`
73.3 µM

Value wanted: GI50 (EKVX NSCLC) of entry `CCOC(=O)c1cc(C(=O)c2cc(OC)c(OC)c(OC)c2)n2ccc(-c3cc[n+](CC(=O)c4cc(OC)c(OC)c(OC)c4)cc3)cc12`
2.64 µM

Which measured GI50 belongs to `O=c1[nH]c2ccccc2n1C1CCN(CCOc2ccccc2)CC1` , tested on EKVX NSCLC?
7.05 µM

Could you share what GI50 was measured for `O=C(COc1cccc(/C=C2\Oc3ccc4ccccc4c3C2=O)c1)c1ccc([N+](=O)[O-])cc1` , tested on EKVX NSCLC?
> 100 µM

* * *

Consider the following compounds; for each one, report its GI50.
- Tested on: UO-31 renal
- test description: NCI tumour cell line growth inhibition, 48 h

Recorded GI50 for `CCOC(=O)CCSC1=CC(=O)c2nc3ccccc3c3ccnc1c23` , please?
16.3 µM

Item CC(C)(C)OC(=O)N1Cc2cc3ccccc3nc2C1CO (stereo unspecified) has what recorded GI50?
> 100 µM

Which GI50 value belongs to Cc1nccn1CC1CCc2c(c3ccccc3n2C)C1=O (stereo unspecified) ?
78.5 µM

Please look up its GI50: `NCCCNc1nc2ccccc2c2c(=O)c3cc(F)cc(Cl)c3sc12`
1.47 µM

I have this compound here, `COC(=O)[C@H](CCCCNC(=O)OCc1ccccc1)NC(=O)[C@@H](NC(=O)Nc1cc(C(F)(F)F)cc(C(F)(F)F)c1)C(C)C` , and I need its recorded GI50.
> 10 µM

GET /values?readout=GI50&item= O=C(CC1Sc2ccccc2NC1=O)NNc1ccc(F)cc1 (stereo unspecified)
7.47 µM

* * *

- Test system: ACHN renal
- test description: NCI tumour cell line growth inhibition, 48 h
Exercise: state measured TGI for each of the molecules provided.

Recall the recorded TGI for `CCSCCCC(=O)O` with ACHN renal and state it.
> 100 µM

// map N#CC1=C(c2ccccc2)OC2(N)OC(c3ccccc3)=C(C#N)C12C#N (stereo not given) to recorded TGI (system: ACHN renal)
> 100 µM

So what TGI did `C[Si](C)(C)/C=C/CN1C(=O)CCC1=O` get with ACHN renal?
> 100 µM

Form field - read-out: TGI; system: ACHN renal; submitted item: `CC(C)(C)NC(=S)N/N=C/c1ccccn1`
27 µM

Param readout = TGI; param system = ACHN renal; param query = Cc1ccc2c(c1)CC1(C2)Cc2ccc(C)cc2C1=O (stereo not given) ; response: value
> 100 µM

GET /values?readout=TGI&system=ACHN renal&item= `CC[P+]1(c2ccccc2)CCCCC1`
> 100 µM

What is its TGI for ACHN renal? Entry: `C=C1C(=O)O[C@H]2[C@H]1CC/C(COC(=O)N[C@H](Cc1c[nH]c3ccccc13)C(=O)OC)=C\CC[C@@]1(C)O[C@@H]21`
4.22 µM

Hi! What's the reported TGI for `COc1cc2cnc3c4cc(OC)c(OC(C)C)cc4ccc3c2cc1OC` on ACHN renal?
> 100 µM

What measured TGI is associated with `CC(=O)/C=C/c1ccc(N(CCO)Cc2ccc(C(C)(C)C)cc2)cc1` on ACHN renal?
170 µM

Missing value: TGI, ACHN renal, entry Cc1cc(C)c(C(=O)C(C)C(c2ccccc2)c2ccc(Cl)cc2)c(C)c1 (stereo not given) . Fill in?
> 100 µM

Param readout = TGI; param system = ACHN renal; param query = `CC(C)=CCOc1ccc(-c2coc3cc4c(c(O)c3c2=O)C=CC(C)(C)O4)cc1` ; response: value
> 100 µM

Provide value of TGI for this record tested with ACHN renal: CC(C)CC1NC(=O)CCC(NC(=O)C(Cc2ccc(O)cc2)NC(=O)OCc2ccccc2)C(=O)NC(Cc2ccccc2)C(=O)NC(Cc2ccccc2)NC1=O (stereo not given)
> 100 µM

Provide the documented TGI with ACHN renal as the system for `Nn1c(CCCCCCCCc2n[nH]c(=S)n2N)n[nH]c1=S`
> 100 µM

Form entry - test system: ACHN renal; read-out: TGI; molecule: `CSc1cc(C(C)(C)C)ccc1C(O)c1ccc(C(C)(C)C)cc1SC`
23.6 µM

# query: TGI | item `COc1cc(-c2ccccc2)cn2c1nc1ccccc12` | system: ACHN renal
49.2 µM

Observed TGI on ACHN renal for Cc1ccc(CN2CCN(Cc3ccc(C)o3)C(C)C2)o1 (stereo not given) , please.
> 100 µM

Lab request: please report TGI under test system ACHN renal for `CCOc1nc2sc3c(c2c(=O)n1CCSSCCn1c(OCC)nc2sc4c(c2c1=O)CCCC4)CCCC3`
> 100 µM

Test system ACHN renal; read-out TGI; what value for Cc1cn(C2CC(O)C(COC(N)=O)O2)c(=O)[nH]c1=O (stereo not given) ?
> 100 µM

For the record `CCOC(=O)c1ccc(N(CCOS(=O)(=O)c2ccc(C)cc2)CCOS(=O)(=O)c2ccc(C)cc2)cc1` , what value of TGI is listed for ACHN renal?
> 100 µM

What reported TGI corresponds to `Cc1cc(OCc2nn(CN3CCN(C)CC3)c(=S)n2/N=C/c2ccc(F)cc2)ccc1Cl` on ACHN renal?
34.3 µM

Find the measured TGI: item COC(=O)C(=O)C(C(C)=O)C(=O)C(=O)Nc1ccc(C)cc1C (stereo not given) , target or system ACHN renal.
> 100 µM

Give the reported TGI for CC[Si](CC)(CC)OC1[C@@H](O[Si](CC)(CC)CC)[C@@H](CNC(=O)NC)O[C@H]1n1cnc2c(NC(=O)Nc3ccccc3)ncnc21 (stereo not given in full) (system: ACHN renal).
> 100 µM

Provide the documented TGI with ACHN renal as the system for `N#CCCN(CCC#N)c1ccc(/C=C(/NC(=O)Nc2ccccc2Cl)NC(=O)c2cc([N+](=O)[O-])ccc2Cl)cc1`
> 100 µM

Entry COC(=O)C(C#N)C1NC(=O)c2ccccc21 (stereo not given) , system ACHN renal: what TGI was measured?
> 100 µM

Please state recorded TGI (tested on ACHN renal) of COC1(C)CNCC(C)(C)NC(=O)C(C)(OC)CNCC(C)(C)NC1=O (stereo not given)
> 100 µM

Query TGI on ACHN renal for O=C(O)CCC(NC(=O)c1ccc(CNc2nc3cc(C(F)(F)F)ccc3nc2C(=O)O)cc1)C(=O)O (stereo not given)
> 100 µM

I'm curious: which TGI was measured for `CN1N=C(c2ccccc2)c2cc(Cl)ccc2N=C1N/N=C/c1ccc(N(C)C)cc1` tested on ACHN renal?
> 100 µM

# get_value(readout= TGI, system= ACHN renal) for `COc1ccc(/C=C/c2nc(=S)[nH][nH]2)cc1OC`
> 100 µM

GET /values?readout=TGI&system=ACHN renal&item= `C[C@@H](Oc1cc(-c2cnn(C3CCNCC3)c2)cnc1N)c1c(Cl)cc(F)cc1Cl`
12 µM

Notebook entry, ACHN renal assay: TGI of `C=C1C(=O)O[C@H]2[C@H]1CC/C(COC(=O)/C=C\C(=O)NCc1ccc(Cn3c(=O)sn(-c4ccc(Cl)cc4)c3=O)cc1)=C\CC[C@@]1(C)O[C@@H]21` = ?
1.03 µM

Lab note: need TGI with ACHN renal for entry `CCOC(=O)c1ccc(NC(=O)c2cccc(NC3=C(Cl)C(=O)N(Cc4ccccc4)C3=O)c2)cc1` , please look it up.
> 100 µM

Notebook entry, ACHN renal assay: TGI of CC(=O)OCC1OC(n2c(O)c(N=NC(N)=S)c3ccc([N+](=O)[O-])cc32)C(OC(C)=O)C1OC(C)=O (stereo not given) = ?
> 100 µM

Reported TGI for ACHN renal, given `CCS(=O)(=O)N1CCN(c2ccc(Nc3ncc(C(N)=O)c(NC4CC4)n3)cc2)CC1` ?
82.8 µM

Which measured TGI belongs to COC(=O)/C(=N\N)C(C(=O)C(=O)Nc1nc(=S)[nH][nH]1)c1nc2ccc([N+](=O)[O-])cc2[nH]c1=O (stereo not given) , tested on ACHN renal?
> 100 µM

Test system ACHN renal; read-out TGI; what value for `CCOC(=O)CCn1cnc(N)n1` ?
> 100 µM

What TGI appears in the records for this molecule with ACHN renal? COC1(OC)C2C=CC1C([C@](C)(N)CO)C2 (stereo not given in full)
> 100 µM

Item `CCCCCC(/C=C/c1ncccc1OCCCCCC(=O)O)=N\NC1=NCCN1` with ACHN renal - TGI?
> 100 µM

Lab request: please report TGI under test system ACHN renal for `O=C(CCl)Nc1ccc(Cc2ccc(NC(=O)CCl)cc2)cc1`
3.03 µM

Provide the documented TGI with ACHN renal as the system for `COC(=O)[C@H](C)N(C)C(=O)[C@H](C)N1[C@@H](c2ccccc2)COC1(C)C`
> 100 µM

Field: TGI (ACHN renal). Entry: COc1ccc(NC(=O)c2cccc(C3CCc4c(cc(OC)c(OC)c4OC)O3)c2)cc1 (stereo not given)
> 100 µM
